system-name: T1, human Y1 receptor (human, UniProt P25929 1-384)
T1 construct: whole, on cells; stably transfected 293 cells for function
T1 sequence (looked up): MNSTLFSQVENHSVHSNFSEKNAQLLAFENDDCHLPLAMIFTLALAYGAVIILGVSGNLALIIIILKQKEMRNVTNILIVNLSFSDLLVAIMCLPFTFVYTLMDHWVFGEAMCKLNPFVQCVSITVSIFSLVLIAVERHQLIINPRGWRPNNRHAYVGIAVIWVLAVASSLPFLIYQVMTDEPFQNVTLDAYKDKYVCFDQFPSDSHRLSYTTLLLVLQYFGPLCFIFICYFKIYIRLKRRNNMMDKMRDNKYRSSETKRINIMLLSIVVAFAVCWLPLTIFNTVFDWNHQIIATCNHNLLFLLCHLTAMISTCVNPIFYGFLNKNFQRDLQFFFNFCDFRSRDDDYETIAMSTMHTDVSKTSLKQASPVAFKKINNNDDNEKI
assay-remarks: 125I-PYY displacement, COS-7 membranes
pKi: −log10 of the molar value.
property: pKi

1) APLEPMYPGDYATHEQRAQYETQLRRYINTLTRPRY (peptide, UniProt P06303 30-65, looked up, mature; also called PP, rat) [rat PP]	6.35
